- measured on: Left-right determination factor 2 (Homo sapiens)
- assay text: small molecules binding LEFTY2 protein – biochemical, small-molecule microarray, 635 nm fluorescence scan, primary screen (AID 1110)
- condition details: higher = more signal
# composite z-score annotations
recorded metric: composite z-score

O=C(C=C(CC(O)c1cccc(Cl)c1)OCCF)OCCF (centres undefined) ... -0.492
CCOC(=O)C[C@H]1[C@H](OC(=O)c2cc3ccccc3oc2=O)[C@@H](NC(=O)c2ccc3ccccc3n2)c2cc(OCCCO)ccc2N1C(=O)c1ccc2ccccc2n1 ... 1.09
NC(=O)NCC#Cc1ccc2c(c1)[C@]1(C(=O)N2)[C@H](c2ccc(O)cc2)N2[C@H](c3ccccc3)[C@H](c3ccccc3)OC(=O)[C@H]2[C@@H]1C(N)=O ... -0.749
COc1ccccc1CN1C(=O)c2ccccc2[C@](Cc2ccccc2I)(C(=O)NCCN2CCOCC2)[C@@H]1c1ccc(CO)cc1 ... 1.01

---

- assay text: binders of probe aHhip on microarray, primary screen, stem cell growth factor project, biochemical, small-molecule microarray, fluorescence 635/667 (AID 1087);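 note: score merges spot fluorescence at 667nm with spot signal to noise ratio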
- condition details: higher = more signal
# composite z-score annotations
recorded metric: composite z-score

CN(C)CCCC[C@@H]1NC(=O)[C@H]2C[C@@H](C(=O)NCCCCCCNC(=O)CS)[C@@H](c3ccc(O)cc3)N2C1=O ... -0.125
[N-]=[N+]=NCc1ccccc1[C@H]1OC(c2ccc(OCCCO)cc2)=N[C@@]1(Cc1ccccc1N=[N+]=[N-])C(=O)NCCN1CCOCC1 ... 0.113
O=C1O[C@H](c2ccccc2)[C@H](c2ccccc2)N2[C@H]1[C@@H](C(=O)N1CCN(c3ncccn3)CC1)[C@]1(C(=O)Nc3ccc(C#CCCO)cc31)[C@H]2c1ccc(OCCO)cc1 ... -0.0994
O=C1N(CCS(=O)(=O)c2ccccc2)c2ccccc2[C@H]2OC(c3ccc(OCCCO)cc3)=N[C@@]12CCS(=O)(=O)c1ccccc1 ... 0.772

---

# composite z-score annotations
- Test system: Neuregulin-1 EGF-like domain
- assay text: small molecules binding NRG1 EGF domain – biochemical, small-molecule microarray, 635 nm fluorescence, primary screen (AID 1081);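 note: binding of the protein to compounds printed on small-molecule microarray slides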
- condition details: higher = more signal
recorded metric: composite z-score

[N-]=[N+]=NCc1ccccc1[C@H]1OC(c2ccc(OCCCO)cc2)=N[C@@]1(Cc1ccccc1)C(N)=O ... 1.1
CN1C(=O)C2C=CC(C(O)COCc3ccccc3)N(Nc3ccccc3)C2C1=O (configuration not stated) ... 1
COC(=O)C(CC#Cc1ccc2c(c1)[C@]1(C(=O)N2)[C@H](c2ccc(O)cc2)N2[C@H](c3ccccc3)[C@H](c3ccccc3)OC(=O)[C@H]2[C@@H]1C(N)=O)C(=O)OC ... -0.777
O=C1NC(=O)C2C1C=CC(C(O)c1ccc3c(c1)OCO3)N2Nc1ccc(Cl)cc1Cl (configuration not stated) ... 0.543
C=CCNC(=O)[C@H]1[C@@H]2C(=O)O[C@@H](c3ccccc3)[C@@H](c3ccccc3)N2[C@@H](c2ccc(O)cc2)[C@]12C(=O)N(C(=O)OCCOC)c1ccc(C#CC3(O)CCCCCC3)cc12 ... 1.27
CO[C@H]1O[C@H](CO)[C@@H](OC(=O)Nc2cccc(F)c2)[C@H](OC(=O)Nc2ccc3c(c2)OCO3)[C@H]1OC(=O)Nc1ccc2c(c1)OCO2 ... 1.17
COC(=O)[C@]1(Cc2ccccc2CN=[N+]=[N-])N=C(c2ccc(OCCCO)cc2)O[C@@H]1c1ccccc1CN=[N+]=[N-] ... 1.28
